Origin of measurements: PubChem BioAssay AID1508600

Assay: Components of the Cytosolic LPS Sensing Pathway: Gene Identification via Genome-wide siRNA Screen
Settings: RAW264.7 macrophages, IL-1a HTRF, actives lie on both sides, screened at 100 nM (by protocol), cells primed 5 h with Pam3CSK4 first
Hit rate of the full screen: of about 53,000 sequences, about 3,700 (7%) were called active. Only a selection was taken, and actives are over-represented in it overall.
Criterion: z-score strictly less than -0.2. Met: Fulfilled. Not met: Not fulfilled.

biopolymer_sequence	label
GCUUAUAAGAGUCUAUCUUTT against Stam	Fulfilled
GCAAGAAGGGACACAGUUUTT against Plk1	Not fulfilled
CCUACAGAGUACAGAUUAUTT against Atp6v0d1	Fulfilled
GGACAAGAAGCAUCUUUCATT against Smpdl3a	Fulfilled
GGAGAUCUGCUCUAAUUAUTT against Eif1ax	Not fulfilled
GGUGAAUUCAACUCUCUAATT against Decr1	Not fulfilled

---

Recorded measurements of z-score, one per entry
Assay: Components of the Cytosolic LPS Sensing Pathway: Gene Identification via Genome-wide siRNA Screen
Conditions: RAW264.7 macrophages, IL-1a HTRF, actives lie on both sides, screened at 100 nM (by protocol), cells primed 5 h with Pam3CSK4 first
In all, about 53,000 sequences went through this assay and about 3,700 (7%) were called active. Shown is part of a subset that was picked to be rich in actives.

biopolymer_sequence	z-score
AGCUGACUGUAAAAAAACCTT against Fuom	0.19 (inactive)
GCUGACUUCACAUUUGGCUTT against Mms19	-0.24 (inactive)
GGGAAUGGAAACGGCCAUGTT against Nmt1	2.02 (active)
CCCACUUGCUGAAAAUUGUTT against Ankib1	-0.338 (inactive)
GGAGCUUCCACAACUCAUATT against Esd	-0.456 (inactive)
CGUGUCUGAAGGACUACAATT against 1700052K11Rik	0.0454 (inactive)
GGAGAAAUUCGACUGAAAATT against Pcdhb13	3.47 (active)
CCCUAGACUUGAGAGUUUUTT against Eif2s1	1.29 (inactive)
GGUGUUGAGAUCCACAAGGTT against Tceanc2	-2.44 (active)
GGGUCAGCCAAAGGAAAAUTT against Nlrc3	-0.193 (inactive)
UCUGCUCAACAUCGUCAAUTT against Sstr3	0.719 (inactive)
GGCUGAGAACAUCAAAAAATT against Folh1	0.816 (inactive)
CCUAUCUUCCUGAAUACAUTT against Aqp7	2.71 (active)
GGCAACUGUUUCUGCUCCGTT against Ap4e1	-0.746 (inactive)
GGGAAUUAUGGGCUUACCGTT against 4931414P19Rik	-0.414 (inactive)
CCUUGCUCUUUCCAGCUCUTT against Olfr704	0.332 (inactive)
CGUGAUGAAUGAGAAUAACTT against Maea	0.584 (inactive)
GGUCACAAUGGUUUAAGGATT against Tacr1	-0.943 (inactive)
GGAGGAAACACAUCAUUUGTT against Tmem131	1.15 (inactive)
GACCUUCGUUAGCAUUACGTT against Pfn1	0.65 (inactive)
GGAACUCACCCUCAGCUUGTT against Tmem260	0.313 (inactive)
GGUUUACCCAUCUUGGCCATT against Vwf	-0.501 (inactive)
CGGUCUUUAUACACAUAUATT against Wnt7a	-0.0297 (inactive)
CCUCAAAUGGCCACACACUTT against Kcnj11	-1.27 (inactive)
GGCUUUUUGCUUCACUACUTT against Slco4c1	1.06 (inactive)

---

Test: Components of the Cytosolic LPS Sensing Pathway: Gene Identification via Genome-wide siRNA Screen;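 also: robust z of the log signal after scaling to non-targeting control siRNA wells of the plate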
Conditions: RAW264.7 macrophages, IL-1a HTRF, actives lie on both sides, screened at 100 nM (by protocol), cells primed 5 h with Pam3CSK4 first
In all, about 53,000 sequences went through this assay and about 3,700 (7%) were called active.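 Rule for the calls: active = gene knockdowns whose robust z-score for IL-1 alpha signal is at least 2 or at most -2, so actives lie on both sides; inactive = the rest.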 Shown is part of a subset that was picked to be rich in actives.
Classes used: active, inactive

biopolymer_sequence	label
GGCUGUCUUAUUAAAGCUATT against A730013G03Rik	active
CGGAUUCAGUAUUAGCAAUTT against Ogt	active
GCCUUAUUACUGACCUUUUTT against Smarcd2	inactive
CCGACUAAUGCUAAAUCCATT against Pcgf1	inactive
GGCCCAGCAGACAACUUUATT against Sgca	inactive
GGAAGUCCACAUUGCUGGUTT against Slc2a9	inactive

---

Assay: Components of the Cytosolic LPS Sensing Pathway: Gene Identification via Genome-wide siRNA Screen;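 also: robust z of the log signal after scaling to non-targeting control siRNA wells of the plate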
Details: RAW264.7 macrophages, IL-1a HTRF, actives lie on both sides, screened at 100 nM (by protocol), cells primed 5 h with Pam3CSK4 first
Hit rate of the full screen: of about 53,000 sequences, about 3,700 (7%) were called active. Many of the other results were omitted from the sample, so actives are more common in it than they were.

biopolymer_sequence	z-score
CCGAAGCAUGAAGAAUCUATT against Tubd1	0.544 (inactive)
GGAAUGAAAGUUCCACUAUTT against Emcn	-0.633 (inactive)
GCUCGAGGACUAUAUGAAUTT against Xrcc1	2.03 (active)
GAUUUUCCUCUACUGUCCUTT against U90926	-0.532 (inactive)
CCUGAUCAACAAACCGGAUTT against Rfxank	1.29 (inactive)
GGGCAAACCGGAAAAACAGTT against Ccdc71	-2.06 (active)
GCACCUCUUGGACAAAAUUTT against Tsc1	-1.59 (inactive)
GCAUGCUGACACUUACUUUTT against Olfr878	-0.872 (inactive)
GGAAAAGCAUUUUCAACGUTT against Lhfpl2	-1.41 (inactive)
GGAAAUCCUGGGACAGAACTT against Htatip2	-2.42 (active)
GGAAAAUUACAGAAUUGGATT against Dnali1	0.323 (inactive)
GGCUCUCAACUAAAGCAGCTT against Snu13	-1.18 (inactive)

---

Assay: Components of the Cytosolic LPS Sensing Pathway: Gene Identification via Genome-wide siRNA Screen;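 also: robust z of the log signal after scaling to non-targeting control siRNA wells of the plate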
Conditions: RAW264.7 macrophages, IL-1a HTRF, actives lie on both sides, screened at 100 nM (by protocol), cells primed 5 h with Pam3CSK4 first
Among all 53,000 sequences or so, about 3,700 (7%) were called active. This is one part of a sample in which actives are shown more often than they occur.
Criterion: z-score strictly less than -0.1. Met: yes (1). Not met: no (0).

biopolymer_sequence	label
GGUGGCUCAGAAAUCCUAUTT against Rbpjl	yes (1)
GGAGAAAGCCUUCCUUAGUTT against Trpc5	yes (1)
GCAUCCUUUGUCGAAGUGGTT against Clec18a	yes (1)
GGCUGUGUCAUCACCAUCUTT against Acot7	yes (1)
GGGCAUCACUUGUAAUUAATT against Bcl10	yes (1)
GGAACUUGGUAUUUAGAUCTT against Rhot2	no (0)
GGAAAGAAGGUGAACAACATT against Phax	no (0)
CCGUUAGAGCUGUUAUUUUTT against Olfr556	no (0)
GCGCUUCCAAUAACAAAAATT against 1700123L14Rik	yes (1)
GGUCUUCAUGAAAACCCUCTT against Polr2d	yes (1)
CGCAAUUCAGGUACCAAAUTT against Ndufv1	no (0)
GGAGAGCUGUUUGACUACATT against Melk	no (0)
GGUUUAGCUGCUGACUUAATT against Strn3	no (0)
GGAUAAGAAGCGAUUUGAATT against Rcn2	yes (1)
GGCUAUAAUGAACCAGCUGTT against Ubr3	yes (1)
GGGAAACACAAUUUACCUUTT against Elf1	no (0)
GCACGGAAGACUUACGAACTT against Cstf3	no (0)
GUUGACUGUACCCGAUACATT against Mxd3	no (0)
GGAGUUCUGUCCAUUUUGATT against Olfr1198	no (0)
GGUGCUUAAUUCCUGUCCCTT against Ggn	yes (1)
GGCAAGAAAGAAAGGCCAATT against Rps23	no (0)
GCAGAGGAUAUAAAACAAGTT against Pde2a	yes (1)
GGGUUUUGAAACAUGCAGGTT against Cd44	yes (1)
GCAACGUGGUCAUCAAUCUTT against Ndufa9	yes (1)
GCUUGAUUAUUGUGUGUCCTT against Olfr786	yes (1)

---

Assay: Components of the Cytosolic LPS Sensing Pathway: Gene Identification via Genome-wide siRNA Screen;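 also: robust z of the log signal after scaling to non-targeting control siRNA wells of the plate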
Details: RAW264.7 macrophages, IL-1a HTRF, actives lie on both sides, screened at 100 nM (by protocol), cells primed 5 h with Pam3CSK4 first
The whole screen tested about 53,000 sequences, of which about 3,700 (7%) were called active. The full list was thinned out, with actives kept by preference.
Assign YES to entries whose z-score meets or exceeds 0.3; assign NO to the rest.

biopolymer_sequence	label
CCAUGGUCAUCCCGAUGUUTT against Olfr1454	NO
CCUGAGCUAGAAUCUCAGATT against Zmat2	YES
GGUCCUUGCAUUUCAUCAATT against A630005I04Rik	YES
GCAAACGACGAAAGUCCAATT against Usp49	NO
GCGGAGAGAUCAAAGCGAUTT against Iltifb	NO
GGUGGAUGAUAAUGUUCUUTT against Gcnt3	YES
GGAGAAAUUCCCUUGCCACTT against Kbtbd12	NO
GAUAUGUGCACAAUUCUGCTT against Vmn1r201	NO
CCUGACAGACCGACAAGUGTT against Hoxc11	NO
GCGUGAGCUAAUGUUCACATT against Agpat2	NO
GCGACUUUAGCUAAACAUGTT against Kcns2	YES
CCUAUAAAUGUCCUUAGUCTT against Ccdc115	NO
GGAGCUUGUGAACACCUUCTT against Nudc	YES
GAUUUUCUUUGUUCAUCUCTT against Olfr727	NO
GCUAAACCCAAAAACACAATT against Sim2	YES
CCUCUGCGCAAUUUAGAGATT against Npb	YES
GGCUGUAAUGAGGACUGAUTT against Ss18l2	YES
GGUUGCUAUUAUUAUUGGATT against Fnbp4	YES
GCUAUUGAGAAACCACUUATT against Rasef	NO
GCUUUUACCGUUACGUCUUTT against Uggt1	YES
GCAUAUACUUGAUUACCGUTT against Olfr830	NO
GGAGCUGUAUGACCAUGCCTT against Rab25	NO
CCACCUGUGCUACCACUUATT against Rexo4	NO
GGAAGUCGAGUUGAAAUCGTT against Rida	YES
GCCGCACCGAAAGUGAAAUTT against Copz2	NO
GGAGUUUUGUGAACUAUGATT against Slc36a3	NO
GCUACCGUGGGCGAUGUAATT against Dbi	NO
GUGGCAGCUGACAUGAAUGTT against Plac8	NO
GCUGCGUAGAACCAUAUGCTT against Cst9	NO
GGAGGUAAAAGAUGAGAAATT against Plekho1	YES
GGAGUAUGCGUACCUGAAGTT against Nr0b2	NO
CUCAGAUAUUCUUUUCCCATT against Olfr142	NO
GGCAACAGUAUUUAUGAAUTT against Sim2	NO
CCAAAGAUGUUAUUGGACCTT against Olfr1152	NO
GCCCAUUGAGUUUGAUUCATT against Itgav	YES
CGAAGGGAAGCAAAAUACATT against Bend5	YES
CCUUUAGGUACCACGAGUGTT against Large2	NO
GCUUAGACAACGACAUUUCTT against Mcoln3	YES
GGUGCCAUUGAUUCUGUAGTT against Smim10l2a	NO
GGGAAAUGUUUUCCAAAGATT against Tep1	YES
GGCCAUAUUAAGUAUGGAGTT against Fam118a	NO
GCCAUAUGCUAUCAAGAUGTT against Pskh1	NO
GCCUGUUCGGGAAUCUUACTT against Olfr297	YES
GGCUCUAACAGCUACAUGUTT against Hspb7	NO
CCCAGAAUUGAACUAAAAATT against Mrpl32	NO
GGAUGCAUGGCUCAAUAUUTT against Olfr1164	YES
GCCUUACUACUACAACAACTT against Prpf40b	YES
GGGUAACAUGAAAGUGAUCTT against Mybbp1a	NO
GGGAAGGAUUAUGUCAAAUTT against Kit	YES
CGUGGUCUCGGACACUUUCTT against Hcn2	NO
